MEASURED_PARAMETER: intrinsic clearance, human liver microsomes (mL/min/kg)

Fill blank: measured intrinsic clearance, human liver microsomes of the compound Cc1ccc(CNc2cncc(-n3nc(C)cc3C)n2)cn1 is ____. 23.4

Return reported intrinsic clearance, human liver microsomes; argument: CC[C@@H]1C(=O)N(C)c2cnc(-n3ccnc3-c3ccc(F)cc3)nc2N1c1ccn(C)n1 43.7

I: CNCCN1CCC(OCc2ccccc2)CC1
II: CN(Cc1cnccn1)Cc1nc(N)c2ccccc2n1
III: Cc1cnc(NCC2(CO)CCCC2)nc1N(C)C
Please produce an ascending ranking of these compounds based on intrinsic clearance, human liver microsomes. A ranking is expressed here by listing the labels in the requested order. II, III, I

---

MEASURED_PARAMETER: MDR1-MDCK efflux ratio

Solved cases below.
# query: MDR1-MDCK efflux ratio of entry CC(=O)c1ccc2c(c1)CCN(CCC1OCCO1)CC2 0.527

Reported MDR1-MDCK efflux ratio for Cn1cc(NC(=O)c2cn(Cc3ccccc3)nn2)cn1 : what is it? 1.03

Tell me the measured MDR1-MDCK efflux ratio of Cc1ccc(C(=O)C(=O)NC2CCCC2)cc1 , please. 0.471

a: Cc1cc(OCc2ncc(C(C)(C)C)o2)nn1C
b: c1ccc(OCc2cc(CC3(NCc4cnc5ccccc5c4)COC3)no2)cc1
Look at a and b . Which one has the lower recorded MDR1-MDCK efflux ratio number? Bench note: the answer is the label of the chosen record. a
(a: 0.716, b: 1.29)

---

MEASURED_PARAMETER: MDR1-MDCK efflux ratio

Field: example entries. Status: answers known.
What does the data say about its MDR1-MDCK efflux ratio? Entry: CCc1noc(C2CCC(NCC3CCC(F)(F)CC3)CC2)n1 (centres undefined) 2.98

Which MDR1-MDCK efflux ratio reading was recorded for the compound COc1ccc(Br)c(-c2nnc(N)o2)c1 ? 0.707

P: NCC(=O)Nc1ccc(-n2nc(C(F)(F)F)cc2-c2ccc3c(ccc4ccccc43)c2)cc1
Q: O=C(O)c1cccc(N2CCC(Oc3ccc(Cl)cc3)CC2)n1
Smaller MDR1-MDCK efflux ratio value, P vs Q ? Could you answer with the label of the item you picked? Q
(Q: 0.711, P: 2.96)

---

MEASURED_PARAMETER: intrinsic clearance, rat liver microsomes (mL/min/kg)

Use the examples below as a reference point.
Can you share its intrinsic clearance, rat liver microsomes? I mean this compound: O=C(CCn1ccc2ccccc21)N1CCC(n2c(=O)[nH]c3ccccc32)CC1 5450

Please give the measured intrinsic clearance, rat liver microsomes for this compound: CNC(=O)c1cccc(Cn2nnc(-c3ccccc3Cl)n2)c1 775

Returns the measured intrinsic clearance, rat liver microsomes for the input compound. Input: CCOC1CCN(C(=O)Cn2c(=O)[nH]c3ccccc32)CC1 20.2

I: COc1ccc(C(=O)c2ccc(Cl)cc2)c(OC)c1
II: Cc1ccc(NC(=O)CN2CCCN(c3ccc(C(F)(F)F)cn3)CC2)c(F)c1
Which record shows the lower intrinsic clearance, rat liver microsomes: the first, I , or the second, II ? Your answer should be the label of the entry you select. II

P: Cc1ccc(S(=O)(=O)N2CCCc3ccc(NS(=O)(=O)c4ccc(F)cc4C)cc32)cc1
Q: CC(C)n1cnnc1-c1cccc(N2Cc3ccc(Br)cc3C2=O)n1
Which gives the smaller intrinsic clearance, rat liver microsomes number: P or Q ? Respond with the label that goes with your answer. Q
(Q: 55.5 mL/min/kg, P: 2420 mL/min/kg)
